Values were extracted from PubChem BioAssay (NCI).

system: OVCAR-3 ovarian; test: NCI-60 one-dose screen, 48 h (100 = growth as untreated, 0 = no growth, -100 = all killed); details: 10 µM unless noted
About 83,000 compounds went through this panel and 20% of them were active in at least one assay; those are over-represented in the sample as a whole.
Parameter: growth (%)
Please state the figure in %; there is no need to write the unit.

Known results for compounds:
{"Compound": "C=C1C(=O)O[C@H]2[C@H]1CC/C(COC(=O)CCCCCC(=O)OC/C1=C/CC[C@@]3(C)O[C@H]3[C@H]3OC(=O)C(=C)[C@@H]3CC1)=C\\CC[C@@]1(C)O[C@@H]21", "Unit Label": "%", "growth": 1.8}
{"Compound": "O=C1Nc2c(ccc(Cl)c2Cl)/C1=C/c1ccccn1", "Unit Label": "%", "growth": 84.6}
{"Compound": "O=C(OC(OC(=O)c1cc(Cl)cc(Cl)c1)c1cccc2ccccc12)c1ccccc1 (configuration not stated)", "Unit Label": "%", "growth": 97.6}
{"Compound": "COc1ccc(C(O)c2cc3c(N)c(C(=O)Nc4ccc(Cl)cc4)sc3nc2C)cc1 (configuration not stated)", "Unit Label": "%", "growth": -35.7}
{"Compound": "O=C1NC(=S)NC(=O)C1=Cc1cn(Cc2ccccn2)c2ccccc12", "Unit Label": "%", "growth": 33.5}

**Q:** Look up and report growth, with OVCAR-3 ovarian as system, for O=C(N/N=C/c1ccc(O)c(O)c1)c1sc2ccccc2c1Cl
**A:** 96.9

**Q:** Provide measured growth on OVCAR-3 ovarian for Cc1cc(C)c(C=O)c(C)c1 please.
**A:** 107

**Q:** Look up OVCAR-3 ovarian data: growth of Cc1ccc(O)c(C(=O)O)c1 , then report it.
**A:** 107

**Q:** Give growth for this entry on OVCAR-3 ovarian: COc1cccc(CCC(=O)c2cc3c(N)c(C(=O)Nc4cccc(Cl)c4C)sc3nc2C)c1
**A:** -8.82

**Q:** Identify measured growth obtained with OVCAR-3 ovarian for COc1ccc(/C(C)=N/NC(=O)CSc2nc3ccccc3c(=O)n2Cc2ccc(S(N)(=O)=O)cc2)c(OC)c1 .
**A:** 111

**Q:** Write down the reported growth (system: OVCAR-3 ovarian) of COc1cc(/C=C/C(=O)c2ccc(Nc3ncnc4ccccc34)cc2)cc(OC)c1
**A:** 36.4

----------
Each entry below carries its reported growth.
system: SK-MEL-5 melanoma; assay: NCI-60 one-dose screen, 48 h (100 = growth as untreated, 0 = no growth, -100 = all killed); settings: 10 µM unless noted
About 83,000 compounds went through this panel and 20% of them were active in at least one assay; those are over-represented in the sample as a whole. The source made the active and inactive calls. Rule for the calls: active = growth percent below 10; inactive = the rest.

The examples below pair each entry with its known result.
{"Compound": "O=C(O)c1ccc[n+](CC(=O)N2CCN(c3cc4c(cc3F)c(=O)c(C(=O)O)cn4C3CC3)CC2)c1", "growth": "91.7% (inactive)"}
{"Compound": "CN(Cc1ccccc1)c1nc(Cl)c(C2CC(c3ccc(Cl)cc3)=Cc3[nH][nH]c(=O)c32)s1 (stereo not given)", "growth": "88.2% (inactive)"}
{"Compound": "COc1cc(-c2cc(=O)oc3cc(O)ccc23)cc(OC)c1OC", "growth": "91.4% (inactive)"}
{"Compound": "CC1(C)CN(c2cnc(C(=O)Nc3cc(F)cc4cccnc34)cn2)CCN1", "growth": "89.3% (inactive)"}

**Q:** Answer with the recorded growth for the compound listed here: COc1cc(-c2cc(=O)oc3cc(O)ccc23)c(OC)c2c1OCO2
**A:** 90.6% (inactive)

----------
test system: K-562 leukemia; experiment: NCI-60 one-dose screen, 48 h (100 = growth as untreated, 0 = no growth, -100 = all killed); settings: 10 µM unless noted
About 83,000 compounds went through this panel and 20% of them were active in at least one assay; those are over-represented in the sample as a whole.
Param label: returns Condition met when growth < 20%, returns Condition not met otherwise, including exact equality.

Before answering, review these 10 worked examples.
{"Molecule": "Cc1c(C2=CCCCC2)c2ccccn2c1C(=O)c1cccc(S(=O)(=O)N2CCOCC2)c1", "Target Or System": "K-562 leukemia", "Assigned Category": "Condition not met"}
{"Molecule": "Fc1ccccc1CSc1ncnc2nc[nH]c12", "Target Or System": "K-562 leukemia", "Assigned Category": "Condition not met"}
{"Molecule": "CCCCCCCCOC(=O)c1ccc(O)c(OC)c1", "Target Or System": "K-562 leukemia", "Assigned Category": "Condition not met"}
{"Molecule": "c1cnc2nc3c(cc2c1)oc1ccccc13", "Target Or System": "K-562 leukemia", "Assigned Category": "Condition not met"}
{"Molecule": "Clc1ccc(C2CC(c3cccc(Nc4ccncc4)c3)=NN2c2cc(Cl)cc(Cl)c2)cc1 (stereo not drawn)", "Target Or System": "K-562 leukemia", "Assigned Category": "Condition met"}
{"Molecule": "CCc1c(Nc2ccc(C)cc2)[nH]c(N)nc1=S", "Target Or System": "K-562 leukemia", "Assigned Category": "Condition not met"}
{"Molecule": "COc1cc(-c2cc(=O)oc3cc(O)ccc23)c(OC)c2c1OCO2", "Target Or System": "K-562 leukemia", "Assigned Category": "Condition not met"}
{"Molecule": "COc1ccc(/C=N/NC(=O)c2cccc3cc[nH]c23)cc1O", "Target Or System": "K-562 leukemia", "Assigned Category": "Condition not met"}
{"Molecule": "CCN(CC)CCOC(COc1cc(C)cc(C)c1)COc1cc(C)cc(C)c1", "Target Or System": "K-562 leukemia", "Assigned Category": "Condition met"}
{"Molecule": "CN1CCN(c2cc(F)c(NC3=C(Cl)C(=O)c4ncccc4C3=O)c(F)c2)CC1", "Target Or System": "K-562 leukemia", "Assigned Category": "Condition met"}

**Q:** For COc1cc2c(cc1[N+](=O)[O-])-c1ccc([N+](=O)[O-])cc1/C2=N/NC(N)=S , is the recorded growth below the cut-off of 20%?
**A:** Condition not met

**Q:** Consider the molecule CCCCCCCCOc1ccc(/C=N/Nc2cc(C)nc3ccc(Cl)cc23)cc1 . Is its growth strictly less than 20%?
**A:** Condition met

----------
system: OVCAR-3 ovarian; assay: NCI-60 one-dose screen, 48 h; conditions: 10 µM unless noted
The panel holds about 83,000 compounds, 20% with a hit somewhere; the sample as a whole holds those more often. Calls of active or inactive are those of the source. The calls were made as follows: active = growth percent below 10; inactive = the rest.
# valid calls are active, inactive; nothing else

{"Molecule": "COc1ccccc1C(C[N+](=O)[O-])c1c(-c2ccccc2)[nH]c2cc(C)ccc12 (stereo not given)", "Assigned Category": "inactive"}
{"Molecule": "O=C(NCCc1ccccn1)OCc1nc2nc(Cl)nc(N3CCOCC3)c2[nH]1", "Assigned Category": "active"}
{"Molecule": "C#CC(=O)Nc1cccc2c1cc(C)n2-c1nc2c(c(NCc3ccccc3)n1)CCCC2", "Assigned Category": "active"}
{"Molecule": "COc1ccc(-c2nc3sccn3c2/C=C/C(=O)c2cc(OC)c(OC)c(OC)c2)cc1", "Assigned Category": "inactive"}

**Q:** For this molecule, state the assay outcome: CN1C2CCC1CN(c1cnc(C(=O)Nc3cc(F)cc4cccnc34)cn1)C2
**A:** inactive

**Q:** Assay result, entry CC1(C)CCCN1CCCN1c2ccccc2Sc2ccc(Cl)cc21 — outcome?
**A:** inactive

----------
tested on: A549/ATCC NSCLC; test: NCI-60 one-dose screen, 48 h (100 = growth as untreated, 0 = no growth, -100 = all killed); details: 10 µM unless noted
The panel holds about 83,000 compounds, 20% with a hit somewhere; the sample as a whole holds those more often.
Mark Satisfied for reported growth of 50% or greater; mark Not satisfied for anything smaller.

Observe how each entry below is paired with its result.
{"Compound": "CN(C)CCCn1c2c(c3ccc(-c4ccn[nH]4)cc3c1=O)C(=O)c1ccccc1-2", "Assigned Category": "Not satisfied"}
{"Compound": "COc1cc(NCCCN(CC(C)C)C2CCCC2)c2ncccc2c1", "Assigned Category": "Satisfied"}
{"Compound": "O=C1NC(=S)NC(=O)C1=Cc1cn(Cc2ccccn2)c2ccccc12", "Assigned Category": "Satisfied"}
{"Compound": "CC1(c2ccccc2)NC(=O)N(CC(=O)Nc2cccc(I)c2)C1=O (stereo not drawn)", "Assigned Category": "Satisfied"}

In the following, a different compound is considered.
**Q:** Could you tell me if the measured growth of COc1cc(C2NC(c3cc(OC)c(OC)c(OC)c3)C(C#N)(C#N)C2(C#N)C#N)cc(OC)c1OC (stereo not drawn) reaches 50% or more?
**A:** Satisfied

----------
tested on: OVCAR-5 ovarian; assay: NCI-60 one-dose screen, 48 h (100 = growth as untreated, 0 = no growth, -100 = all killed); conditions: 10 µM unless noted
Compounds without any hit were thinned out: in the full panel of roughly 83,000, 20% have a hit.
Assign labels as follows, please: T for growth below 70%; F for growth equal to or exceeding 70%.

Worked examples follow.
{"Compound": "O=C(Nc1ccc(F)cc1)c1c(NC(=O)C(F)(F)F)sc2c1CCCCC2", "Assigned Category": "T"}
{"Compound": "CC(O)(CO)c1ccccc1 (stereo not drawn)", "Assigned Category": "F"}
{"Compound": "COc1ccc(/C=C/C(=O)c2ccc(OC)c(OC)c2)cc1O", "Assigned Category": "F"}
{"Compound": "O=c1[nH]nc(-c2ccc(Br)cc2)cc1Cc1ccc(O)cc1", "Assigned Category": "F"}
{"Compound": "CN(C)C(=O)OCc1nc2c(N3CCOCC3)nc(-c3ccccc3)nc2n1C", "Assigned Category": "T"}
{"Compound": "O=C(Nc1cccc(Cl)c1)c1cc(Cl)ccc1O", "Assigned Category": "T"}

**Q:** Is 70% strictly greater than the compound's reported growth? compound: CCNC(=O)c1[nH]cc(-c2ccc(OC)cc2)c1-c1cc(OC)c(OC)c(OC)c1
**A:** F
